MEASUREMENT DESCRIPTION: differential killing of epithelial or mesenchymal cells, primary screen, imaging, PC-3E GFP, TEM4-18 mCherry, co-culture (AID 1345086);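 also: normalised mesenchymal count divided by normalised epithelial count so high means epithelial killing; cells exposed to compound for 72 h before imaging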
RECORDED CONDITIONS: imaging cell counts, at 1 µM, actives lie on both sides, counts scaled to control wells, 1 = unselective
Entries annotated with measured red/green cell ratio (normalised)
The reply should be a number, written without any unit.

Answered cases to consult:
MOLECULE | red/green cell ratio (normalised)
N=c1ccn2c(n1)O[C@@H]1[C@@H](O)[C@H](CO)O[C@@H]12 | 0.99
CC1CN(c2c(F)c(N)c3c(=O)c(C(=O)O)cn(C4CC4)c3c2F)C[C@H](C)N1 (some centres undefined) | 0.99
Cc1cc(O)c2c(c1)Cc1cccc(O)c1C2=O | 0.94
C[C@@H]1C=C2C=C[C@@](C)(O)[C@](C)(C(=O)CCO)[C@H]2[C@@H](O)C1 | 0.85
C=C[C@@H](C1=CC(=O)C(OC)=C(OC)C1=O)c1ccccc1 | 0.99

Could you now consider this next molecule?
Summary for this molecule, CO[C@@]1(NC(=O)C2SC(=C(C(N)=O)C(=O)O)S2)C(=O)N2C(C(=O)O)=C(CSc3nnnn3C)CSC21 (some centres undefined) : red/green cell ratio (normalised) is 0.96
